biological target: MAP kinase-interacting serine/threonine-protein kinase 2 (Homo sapiens); experiment: Inhibition of MNK2 (unknown origin) at 10 uM using S3 as substrate measured after 60 mins by HTRF assay relative to control
Sequence (Q9HBH9 whole entry, looked up): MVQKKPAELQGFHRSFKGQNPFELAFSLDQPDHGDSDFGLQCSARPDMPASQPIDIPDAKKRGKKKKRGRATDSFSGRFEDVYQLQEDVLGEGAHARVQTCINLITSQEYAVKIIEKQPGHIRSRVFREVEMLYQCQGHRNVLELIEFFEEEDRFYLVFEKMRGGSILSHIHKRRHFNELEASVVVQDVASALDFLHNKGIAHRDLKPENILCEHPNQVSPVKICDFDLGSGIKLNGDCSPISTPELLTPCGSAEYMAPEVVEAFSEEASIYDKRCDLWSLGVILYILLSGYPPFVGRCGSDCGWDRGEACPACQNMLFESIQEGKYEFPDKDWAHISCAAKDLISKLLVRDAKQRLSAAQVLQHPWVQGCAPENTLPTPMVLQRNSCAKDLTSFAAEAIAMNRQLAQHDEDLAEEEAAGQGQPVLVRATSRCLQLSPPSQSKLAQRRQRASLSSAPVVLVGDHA
We use 30% as the dividing line for inhibition: on or above the line is 1, below is -1.

{"columns": ["SAMPLE SMILES", "CLASS NAME"],
 "data": [
  ["COc1cc(O)c(C(N)=O)c2oc(C(=O)NC3CCN(Cc4cccc(Cl)c4Cl)CC3)c(C)c12", -1]
]}

Tell me whether inhibition is at least 30% here: `COc1cc(O)c(C(N)=O)c2oc(C(=O)NC3CCN(Cc4cc(Cl)ncn4)CC3)c(C)c12`
-1

Tell me whether inhibition is at least 30% here: `COc1cc(O)c(C(N)=O)c2oc(C(=O)NC3CCN(Cc4ccc(Cl)cc4Cl)CC3)c(C)c12`
-1

Tell me whether inhibition is at least 30% here: `Cc1c(C(=O)NC2CCN(Cc3cccc(C(F)(F)F)c3)CC2)oc2c(C(N)=O)c(O)cc(O)c12`
1

Tell me whether inhibition is at least 30% here: `COc1cc(O)c(C(N)=O)c2oc(C(=O)NC3CCN(Cc4ccc(C)cc4)CC3)c(C)c12`
1

Tell me whether inhibition is at least 30% here: `COc1cc(O)c(C(N)=O)c2oc(C(=O)NC3CCN(Cc4c(Cl)cccc4Cl)CC3)c(C)c12`
-1

Tell me whether inhibition is at least 30% here: `COc1cc(O)c(C(N)=O)c2oc(C(=O)NC3CCN(Cc4ccccc4F)CC3)c(C)c12`
1

Tell me whether inhibition is at least 30% here: `COc1cc(O)c(C(N)=O)c2oc(C(=O)NC3CCN(C(=O)c4ccc(C(F)(F)F)cc4)CC3)c(C)c12`
-1

Tell me whether inhibition is at least 30% here: `COc1cc(O)c(C(N)=O)c2oc(C(=O)Nc3ccc(C)c(C(F)(F)F)c3)c(C)c12`
1

Tell me whether inhibition is at least 30% here: `COc1cc(O)c(C(N)=O)c2oc(C(=O)NCCN(C)C)c(C)c12`
-1

Tell me whether inhibition is at least 30% here: `COc1cc(O)c(C(N)=O)c2oc(C(=O)N3CCN(c4cccc(C(F)(F)F)c4)CC3)c(C)c12`
1

* * *

biological target: MAP kinase-interacting serine/threonine-protein kinase 1 (Homo sapiens); assay: Inhibition of MNK1 (unknown origin) at 1 uM using S3 as substrate measured after 60 mins by HTRF assay relative to control
A collection of molecules and their measured inhibition

{"columns": ["SAMPLE SMILES", "OUTCOME MEASURE", "MEASUREMENT"],
 "data": [
  ["CCN1CCN(C(=O)c2oc3c(C(N)=O)c(O)cc(OC)c3c2C)CC1", "inhibition", "7%"],
  ["CNC(=O)c1oc2c(C(N)=O)c(O)cc(OC)c2c1C", "inhibition", "26%"],
  ["COc1cc(O)c(C(N)=O)c2oc(C(=O)NC3CCN(Cc4cccc(C(F)(F)F)c4)CC3)c(C)c12", "inhibition", "41%"],
  ["COc1cc(O)c(C(N)=O)c2oc(C(=O)Nc3ccc(C)c(C(F)(F)F)c3)c(C)c12", "inhibition", "23%"]
]}

We next turn to a different molecule, shown below.
State the recorded inhibition for this entry: `COc1cc(O)c(C(N)=O)c2occ(C)c12`
49%

// provenance: ChEMBL document CHEMBL4229533
